Assay System: HIV-1 HXB2 envelope glycoprotein gp41 (N-trimer of the prehairpin intermediate) (HIV-1 strain HXB2, UniProt P04578 512-856)
Method Description: cell-based or functional assay
Bridges are numbered along the chain shown (N, C = ends). Roman numbers before positions name the chains, in order. [ ]: non-standard residue; d: D form.
Label yes when IC50, HXB2 pseudovirion entry is strictly below 3000 pM; otherwise label no.

Binder	Group
Ac-[dK]G[dA][dC][dD][dY][dP][dE][dW][dQ][dW][dL][dC][dA][dA]-NH2 (disulfide 4-13 (inferred); also: dimer linked N- to C-terminal by PEG9 spacer) [N9C(PIE7)2]	yes
Ac-[dK][dK]G[dA][dC][dD][dY][dP][dE][dW][dR][dW][dL][dC][dA][dA]-NH2 (disulfide 5-14 (inferred)) [2K-PIE2]	yes
C0C(PIE7-GK)3 (disulfide I:3-I:12, II:3-II:12 (inferred); also: trimer, C-terminal Lys residues linked by zero length spacers) peptide 1: Ac-G[dA][dC][dD][dY][dP][dE][dW][dQ][dW][dL][dC][dA][dA]G[dK]-NH2 peptide 2: Ac-G[dA][dC][dD][dY][dP][dE][dW][dQ][dW][dL][dC][dA][dA]G[dK][dK]-NH2	yes
Ac-G[dA][dC][dD][dY][dP][dE][dW][dQ][dW][dL][dC][dA][dA]G[dK]-NH2 (disulfide 3-12 (inferred); also: linked directly to trifunctional crosslinker TSAT) [PIE7-GK short claw]	yes
Ac-G[dA][dC][dD][dY][dP][dE][dW][dQ][dW][dL][dC][dA][dA]G[dK]-NH2 (disulfide 3-12 (inferred); also: dimer, C- to C-terminal link by PEG9 spacer) [C9C(PIE7-GK)2]	yes

Task: Does the reported IC50, HXB2 pseudovirion entry of Ac-[dH][dP][dC][dD][dY][dP][dE][dW][dQ][dW][dL][dC][dK][dL]G[dK]-NH2 (disulfide 3-12 (inferred)) [PIE13] stay below 3000 pM?
Output: no

Task: IC50, HXB2 pseudovirion entry strictly < 3000 pM for this binder? Ac-[dH][dA][dC][dD][dY][dP][dE][dW][dQ][dW][dL][dC][dE][dL]G[dK]-NH2 (disulfide 3-12 (inferred)) [PIE15]
Output: no

Task: Please determine if C5C(PIE7-GK)3 (disulfide I:3-I:12, II:3-II:12 (inferred); also: trimer: C-terminal Lys linked by PEG5 spacers) peptide 1: Ac-G[dA][dC][dD][dY][dP][dE][dW][dQ][dW][dL][dC][dA][dA]G[dK]-NH2 peptide 2: Ac-G[dA][dC][dD][dY][dP][dE][dW][dQ][dW][dL][dC][dA][dA]G[dK][dK]-NH2 is below 3000 pM in terms of IC50, HXB2 pseudovirion entry.
Output: yes
